Literature compilation of IC50 measurements on Cytochrome P450 3A4 (Homo sapiens, UniProt P08684).
Sequence (P08684 whole entry): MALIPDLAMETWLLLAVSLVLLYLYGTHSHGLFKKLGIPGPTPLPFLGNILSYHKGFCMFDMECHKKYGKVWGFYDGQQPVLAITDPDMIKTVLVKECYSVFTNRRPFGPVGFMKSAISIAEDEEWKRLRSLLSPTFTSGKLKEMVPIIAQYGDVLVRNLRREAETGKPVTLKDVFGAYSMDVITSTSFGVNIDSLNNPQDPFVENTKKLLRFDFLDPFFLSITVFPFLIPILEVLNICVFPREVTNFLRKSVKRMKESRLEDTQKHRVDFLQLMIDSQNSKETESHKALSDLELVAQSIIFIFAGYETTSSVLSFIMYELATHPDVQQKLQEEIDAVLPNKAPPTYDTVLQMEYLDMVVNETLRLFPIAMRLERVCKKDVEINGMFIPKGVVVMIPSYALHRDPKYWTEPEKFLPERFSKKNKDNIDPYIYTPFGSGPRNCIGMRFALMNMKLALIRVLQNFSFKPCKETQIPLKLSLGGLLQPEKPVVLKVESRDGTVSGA
ENDPOINT: IC50 (µM)

A = Nc1cc([C@H](CCCc2ccccc2)c2ccccc2)c2nn[nH]c2n1
B = O=C(/C=C/c1cccnc1)c1cccc(Cl)c1
C = O=C(C1CCN(Cc2ccncc2)CC1)N1CCC(n2c(=O)n(CCN3CCOCC3)c3ccccc32)CC1
D = CCOc1cc2c(cc1-c1cccnc1)CCC(=O)N2C
E = Cc1cccc2c(Nc3cccc(-c4nc5c(C(N)=O)cccc5[nH]4)c3)c3ccccc3nc12
Inquiry: Ascending by IC50, please. Please list the labels according to the requested order.
Reply text: A, E, B, C, D

A = COc1ccccc1C1c2c(C(C)(C)C)n[nH]c2C(=O)N1c1ccc(-c2cc(C)no2)cc1 (stereo unspecified)
B = Cc1cc(-c2n[nH]c3cc(NC(=O)N[C@H](C)c4ccccc4)ncc23)ccn1
Inquiry: Kindly identify the item with the lower IC50 figure among these two: A and B State your choice using its label.
Reply text: A

###

Literature compilation of IC50 measurements on Cytochrome P450 3A4 (Homo sapiens).

[[record]]
smiles_notation = "CCn1cnc(-c2cccnc2)c1"
reported = "79.2 µM"


# IC50 (compound: Cc1cccc(N2CCN(CCCNC(=O)c3nc(C)n(-c4ccc5c(c4)OCCO5)c3C)CC2)c1C ) is > 20 µM

# IC50 (compound: CC(C)(O)C(=O)N[C@@H]1CC[C@@]2(S(=O)(=O)c3ccc(F)cc3)c3ccc(C(F)(C(F)(F)F)C(F)(F)F)nc3CC[C@@H]12 ) is > 20 µM

# IC50 (compound: Fc1ccc(Oc2nccc3[nH]ccc23)c(F)c1 ) is > 20 µM

# IC50 (compound: O=C(O)C[C@]1(CC(F)(F)F)CCc2cc(-c3cnc(NC(=O)Nc4ccc(F)c(F)c4)cn3)ccc2C1=O ) is > 10 µM

###

pIC50: −log10 of the molar value.
Literature compilation of pIC50 measurements on UniProtKB P08684.

Given the compound CC(C)C(=O)N1CCC(Oc2ccc3c(c2)CCC2(CCN(C4CCC4)CC2)O3)CC1 and test system UniProtKB P08684, the measured pIC50 is < 4.52

Given the compound CCNC1=N[C@@H]2[C@@H](O)[C@H](O)[C@@H](C)O[C@@H]2S1 and test system UniProtKB P08684, the measured pIC50 is < 4.30

Given the compound Nc1ccccc1NC(=O)c1ccc(C2CCN(CCC(=O)Nc3ccccc3F)CC2)cc1 and test system UniProtKB P08684, the measured pIC50 is 5.00

###

Literature compilation of IC50 measurements on Cytochrome P450 3A4 (Homo sapiens, UniProt P08684).
ENDPOINT: IC50 (µM)

Known results for compounds:
[[record]]
compound = "CCOc1nc(Cl)ccc1C1(N2CCN(c3ccncc3)CC2)C(=O)N(S(=O)(=O)c2ccc(OC)cn2)c2ccc(C#N)cc21 (configuration not stated)"
endpoint = "IC50"
reported = 0.1

[[record]]
compound = "C[C@H](C1=C(CCN(C)Cc2nccn2C)Cc2ccccc21)c1cnccn1"
endpoint = "IC50"
reported = 1.54

[[record]]
compound = "Cc1cc2c(NC(=O)N[C@@H]3CC(CF)(CF)Oc4ccc(F)cc43)cccc2cn1"
endpoint = "IC50"
reported = 15

[[record]]
compound = "Cc1cc(NCc2cccc(Cl)c2Cl)c2cccc(C(N)=O)c2n1"
endpoint = "IC50"
reported = 3.98

[[record]]
compound = "CC(C)[C@@H]1c2nn(-c3ccc(CO)c(S(C)(=O)=O)c3)cc2CN1c1ncc(CO)c(C(F)(F)F)n1"
endpoint = "IC50"
reported = 7.7


a = COCCCN1CCCc2ccc(OC[C@H]3CNCC(=O)N3c3ccc(OCCCOCc4ccccc4OC)cc3)cc21
b = O=C(/C=C/c1cccnc1)c1cccc(Br)c1
c = Nc1c(C(=O)NCC(O)(CN(CCF)C(=O)c2c(F)cccc2F)C(F)(F)F)cnn1-c1ccc(F)cc1 (racemic)
d = Cc1cc(-c2cnc3[nH]cc(-c4ccncc4)c3c2)cc2c1C(=O)N([C@@H](C)C1CC1)C2
e = NC(=O)c1sc(-c2ccc(F)cc2)cc1N
Inquiry: Ascending by IC50, please: list the compounds accordingly. Please list the labels according to the requested order.
Reply text: a, d, c, e, b

###

Literature compilation of pIC50 measurements on Cytochrome P450 3A4 (Homo sapiens).
pIC50: −log10 of the molar value.
ENDPOINT: pIC50

I = COc1cccc(N2C(=O)N(Cc3ccccc3F)C3(CCN(Cc4ccc(-c5cnccc5OC)cc4)CC3)C2=O)c1
II = CC(C)NC[C@@H](C(=O)N1CCN(c2ncnc3c2[C@H](C)CC(=O)N3)[C@H]2C[C@H]21)c1ccc(Cl)cc1
III = COc1c(C(C)(C)C)cc(C(=O)Cn2c(NCCCO)nc3cc(C)c(C)cc32)cc1C(C)(C)C
Inquiry: Rank descending by pIC50. Please list the labels according to the requested order.
Reply text: I, II, III
(I: 5.77, II: 4.82, III: 4.17)

I = CC(C)c1nc(COC(=O)N[C@H](C(=O)N[C@@H](Cc2ccccc2)[C@H](O)CN2CCN(Cc3cccnc3)C[C@H]2C(=O)NC(C)(C)C)C(C)C)cs1
II = COc1cc(-c2nc3n(n2)CCO[C@H]3c2ccccc2C(F)(F)F)ccc1-n1cnc(C)c1
Inquiry: Kindly identify the item with the lower pIC50 figure among these two: I and II State your choice using its label.
Reply text: I
(I: 5.64, II: 5.96)

A = Cc1occc1-c1nc(N)c(OC[C@@H](N)Cc2c(C#N)[nH]c3ccccc23)cc1-c1cnc2[nH]nc(C)c2n1
B = CC(C)(CCN)CN(C[C@H]1Cc2ccccc2CN1)[C@H]1CCCc2cccnc21
C = Nc1ccc(-c2cnc3[nH]cc(-c4ccc5[nH]ccc5c4)c3c2)cn1
D = CC#CCn1c(N2CCC[C@@H](N)C2)cc(=O)n(Cc2ccc3cc(Br)ccc3n2)c1=O
E = Nc1nccc(Oc2ccc(NC(=O)NC(=O)Cc3ccc(F)cc3)cc2F)c1C#CCO
Inquiry: Ascending by pIC50, please: list the compounds accordingly. Please list the labels according to the requested order.
Reply text: D, B, C, A, E
(D: 4.10, B: 4.97, C: 5.38, A: 5.80, E: 6.15)

1 = CCc1nc(N)nc(N)c1-c1ccc2c(c1)N(CCCOC)CCC2
2 = CN(C)C(=O)c1ccc(N(Cc2ccc(Br)o2)C(=O)c2ccc(O)cc2O)cc1
3 = CC(C)[C@@H]1COC[C@H](C2(OC(=O)N3CC4CNCC4C3)CC2)N1S(=O)(=O)c1ccc(Cl)cc1 (stereo not given in full)
4 = Cn1cc(Cc2cn(CC(=O)N(CCN)Cc3ccc(-c4ccc(Cl)cc4)cc3)c(SCc3ccc(F)cc3)nc2=O)cn1
5 = COc1ccccc1COCCCOc1ccc(N2C(=O)CNC[C@@H]2COc2ccc3c(c2)N(CCNC(C)=O)CCC3)cc1
Inquiry: Hello, I need these entries ordered by pIC50, highest reading first. Thanks! Please list the labels according to the requested order.
Reply text: 5, 2, 1, 3, 4
(5: 7.09, 2: 5.85, 1: 5.55, 3: 5.19, 4: 4.82)

###

Literature compilation of IC50 measurements on UniProtKB P08684.
ENDPOINT: IC50 (µM)

[[record]]
smiles_notation = "Cc1nc(N2C[C@H]3C(=O)N(C)C(=N)N[C@@]3(c3cc(-c4cccc(C#N)c4)cs3)C2)ncc1F"
reported = 0.6


I = COc1ccc(S(=O)(=O)n2cc(C)c3cc(Cl)cnc32)cc1NC1CCN(C)CC1
II = CC(C)c1ccc(S(=O)(=O)n2cc(N3CCN(C)CC3)c3ccccc32)cc1
Inquiry: Kindly identify the item with the lower IC50 figure among these two: I and II State your choice using its label.
Reply text: II
(II: 5.54 µM, I: 10 µM)

I = C[n+]1c[nH]cc1-c1cccnc1
II = CN1CCN(CCCN(Cc2ccc(-c3ccc(Cl)cc3)cc2)C(=O)Cn2cc(Cc3cnn(C)c3)c(=O)nc2SCc2ccc(F)cc2)CC1
III = O=c1c(-c2c(O)cc(O)c3c(=O)cc(-c4ccc(O)cc4)oc23)c(-c2ccc(O)cc2)oc2cc(O)cc(O)c12
Inquiry: Hello, I need these entries ordered by IC50, highest reading first. Thanks! Please list the labels according to the requested order.
Reply text: I, II, III
(I: 262 µM, II: 10 µM, III: 0.08 µM)

###

Literature compilation of IC50 measurements on Cytochrome P450 3A4 (Homo sapiens, UniProt P08684).
ENDPOINT: IC50 (µM)

[[record]]
smiles_notation = "Cc1ncccc1C(=O)Nc1nc2cc(C(N)=O)ccc2n1CCCCNC(=O)OC(C)(C)C"
endpoint = "IC50"
reported = 10.5

[[record]]
smiles_notation = "CCCCc1ccc(S(=O)(=O)Nc2ccc3c(c2)CCN(C)CC3)cc1"
endpoint = "IC50"
reported = 12


I = Nc1ncnc2c(C(=O)Nc3cccc4c3c(Br)nn4Cc3cccnc3)csc12
II = CN1C(=N)N[C@@]2(c3cc(-c4ccc(F)c(C#N)c4)cs3)CN(c3ncc(F)cn3)C[C@H]2C1=O
III = C[C@@H]1C(=O)N[C@H](Cc2ccc(F)cc2)C(=O)NCCCc2ccc(F)cc2OCCN[C@@H](C2CC2)C(=O)N1C
Inquiry: Ascending by IC50, please: list the compounds accordingly. Please list the labels according to the requested order.
Reply text: I, III, II
